target.under.test: Gonadotropin-releasing hormone receptor (Rattus norvegicus)
Sequence (P30969 whole entry): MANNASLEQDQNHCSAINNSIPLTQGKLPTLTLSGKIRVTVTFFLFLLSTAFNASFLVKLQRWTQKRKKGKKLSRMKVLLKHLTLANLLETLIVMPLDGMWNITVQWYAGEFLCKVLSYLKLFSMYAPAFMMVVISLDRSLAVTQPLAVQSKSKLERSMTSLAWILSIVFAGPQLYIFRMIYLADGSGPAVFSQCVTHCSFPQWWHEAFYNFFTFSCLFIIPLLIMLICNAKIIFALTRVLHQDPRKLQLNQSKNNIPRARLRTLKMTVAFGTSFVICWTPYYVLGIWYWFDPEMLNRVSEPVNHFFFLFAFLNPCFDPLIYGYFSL
assay.overview: Inhibition of [125I]buserelin binding to rat Gonadotropin-releasing hormone receptor.
Lab note: cut-off is 0.4 nM. Strictly less in IC50 is Condition met. Exactly 0.4 nM or more is Condition not met.

Here are 8 compounds together with their reported answers.
compound	target.under.test	class
CCN(CC)C(=O)c1ccc2[nH]c(-c3cc(C)cc(C)c3)c(CCNCCCCc3cccnc3)c2c1	Gonadotropin-releasing hormone receptor (Rattus norvegicus)	Condition not met
Cc1cc(C)cc(-c2[nH]c3ccc(C(=O)N4CCCC4)cc3c2CCNCCCCc2ccncc2)c1	Gonadotropin-releasing hormone receptor (Rattus norvegicus)	Condition not met
Cc1cc(C)cc(-c2[nH]c3ccc(C(C)(C)C(=O)N(C)C)cc3c2CCNCCCCc2ccncc2)c1	Gonadotropin-releasing hormone receptor (Rattus norvegicus)	Condition met
CCN(CCO)C(=O)c1ccc2[nH]c(-c3cc(C)cc(C)c3)c(CCNCCCCc3cccnc3)c2c1	Gonadotropin-releasing hormone receptor (Rattus norvegicus)	Condition not met
CCN(CC)C(=O)c1ccc2[nH]c(-c3cc(C)cc(C)c3)c(CCNCCCCc3ccncc3)c2c1	Gonadotropin-releasing hormone receptor (Rattus norvegicus)	Condition not met
Cc1cc(C)cc(-c2[nH]c3ccc(C(=O)N(C)C)cc3c2CCNCCCCc2cccnc2)c1	Gonadotropin-releasing hormone receptor (Rattus norvegicus)	Condition not met
Cc1cc(C)cc(-c2[nH]c3ccc(C(=O)N(CC(C)C)CC(C)C)cc3c2CCNCCCCc2ccncc2)c1	Gonadotropin-releasing hormone receptor (Rattus norvegicus)	Condition not met
Cc1cc(C)cc(-c2[nH]c3ccc(C(C)(C)C(=O)N(C)C)cc3c2CCNCCCCc2cccnc2)c1	Gonadotropin-releasing hormone receptor (Rattus norvegicus)	Condition not met

Find out if reported IC50 for `Cc1cc(C)cc(-c2[nH]c3ccc(C(=O)N4CCCC4)cc3c2CCNCCCCc2cccnc2)c1` is less than 0.4 nM
Condition not met

Find out if reported IC50 for `CCN(C(=O)c1ccc2[nH]c(-c3cc(C)cc(C)c3)c(CCNCCCCc3cccnc3)c2c1)C1CCCCC1` is less than 0.4 nM
Condition met

Find out if reported IC50 for Cc1cc(C)cc(-c2[nH]c3ccc(C(=O)N4C(C)CCC4C)cc3c2CCNCCCCc2ccncc2)c1 (stereo unspecified) is less than 0.4 nM
Condition met

Find out if reported IC50 for `Cc1cc(C)cc(-c2[nH]c3ccc(C(=O)N4CCOCC4)cc3c2CCNCCCCc2ccncc2)c1` is less than 0.4 nM
Condition met

Ref: ChEMBL document CHEMBL1134123
